# EXPERIMENTAL_TARGET: human CXCR4 (on cells, viral lipoparticles or membrane extracts) (human, UniProt P61073 1-352)
# Sequence (P61073 whole entry): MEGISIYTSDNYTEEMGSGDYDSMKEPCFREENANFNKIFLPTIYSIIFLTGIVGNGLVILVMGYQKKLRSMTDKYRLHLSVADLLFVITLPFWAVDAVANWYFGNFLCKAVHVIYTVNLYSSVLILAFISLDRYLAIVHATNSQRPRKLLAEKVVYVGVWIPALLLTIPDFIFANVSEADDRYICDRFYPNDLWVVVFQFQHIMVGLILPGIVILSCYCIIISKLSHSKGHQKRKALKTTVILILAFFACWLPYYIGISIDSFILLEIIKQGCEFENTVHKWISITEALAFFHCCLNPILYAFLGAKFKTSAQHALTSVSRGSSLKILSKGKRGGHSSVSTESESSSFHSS
# ASSAY_PROCEDURE: cell-based or functional assay

{"BINDER": "55A01-35GS-14D09 (bispecific antibody, FLAG3-His6 also made; also called CD123#2-CXCR4#1; 55A01-14D09) EVQLVESGGGSVQAGGSLRLSCTTSGRALNMYVMGWFRQAPGNEREFVAATSSSGGSTSYPDSVKGRFTISRDNAKNTVYLQMNSLKPEDTAAYRCAASPYVSTPTMNILEEYRYWGQGTLVTVSSGGGGSGGGGSGGGGSGGGGSGGGGSGGGGSGGGGSEVQLVESGGGLVQAGGSLRLSCVASGISSSKRNMGWYRQAPGKQRESVATISSGGNKDYTDAVKDRFTISRDTTKNTVYLQMNSLKPEDTAVYYCKIEAGTGWATRRGYTYWGQGTLVTVSS", "IC50, CXCL-12 chemotaxis, MOLM-13, nM": 290}
